Data origin, for the record: patent US4556653A

Test system: Gastric acid secretion
PROTOCOL_DESCRIPTION: Gastric acid secretion in the pylorus ligated rat (antisecretory activity)
Type: in vivo, rat (male Sprague-Dawley)
ASSAY_CONTEXT: 25 mg/kg p.o., 4 hours
Please go through the items and note down their % Antisecretory activity.
Numeric only. Scale: %

Given `CN1CCN(CC(=O)N2c3ccccc3C(=S)Nc3cccnc32)CC1` , respond with its % Antisecretory activity.
51.4

Given CN1CCN(CC(=O)N2c3ccccc3C(=O)Nc3cccnc32)CC1 [P, Pirenzepine, reference compound] , respond with its % Antisecretory activity.
71.5

Given `O=C1Nc2cccnc2N(C(=O)CN2CCCCCC2)c2ccccc21` , respond with its % Antisecretory activity.
55.2

Given CC1CCCCN1CC(=O)N1c2ccccc2NC(=O)c2cccnc21 (stereo not shown) , respond with its % Antisecretory activity.
66.7

Given CC(C(=O)N1c2ccccc2C(=O)Nc2cccnc21)N1CCCCC1 (stereo not shown) , respond with its % Antisecretory activity.
71.3

Given `CC1(C)CCCN(CC(=O)N2c3ccccc3C(=O)Nc3cccnc32)C1` , respond with its % Antisecretory activity.
41.5

Given `O=C1Nc2cccnc2N(C(=O)CCN2CCCCCC2)c2ccccc21` , respond with its % Antisecretory activity.
64.1
